# systemName: Calpain-2 catalytic subunit (Sus scrofa)
# Sequence (P43367 whole entry): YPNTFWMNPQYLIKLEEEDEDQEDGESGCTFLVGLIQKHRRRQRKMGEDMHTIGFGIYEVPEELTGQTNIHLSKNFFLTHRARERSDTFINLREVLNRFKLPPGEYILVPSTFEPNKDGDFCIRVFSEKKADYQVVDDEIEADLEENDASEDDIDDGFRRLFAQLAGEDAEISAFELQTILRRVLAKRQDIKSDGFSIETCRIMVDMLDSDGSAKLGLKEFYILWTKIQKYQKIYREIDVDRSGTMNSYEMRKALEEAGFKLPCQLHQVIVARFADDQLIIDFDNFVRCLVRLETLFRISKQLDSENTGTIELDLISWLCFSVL
# testProtocol: pig calpain II inhibitor potency, dose response, biochemical, fluorogenic peptide substrate (AID 1420)
# Format: functional
reportedMetric: IC50

Record excerpt, results attached:
INSERT INTO assay_data (compound, systemname, reportedmetric, measured) VALUES
  ('Cc1cc(C)c(O)c(-c2cc(C(=O)NCc3ccccc3)[nH]n2)c1', 'Calpain-2 catalytic subunit (Sus scrofa)', 'IC50', '3.02 µM (not active)'),
  ('O=C(O)CC(Cc1ccc(Cl)cc1)C(=O)Nc1ccc([N+](=O)[O-])cc1 (stereo not given)', 'Calpain-2 catalytic subunit (Sus scrofa)', 'IC50', '> 50 µM (not active)'),
  ('O=C(OCc1nnc(-c2ccccc2)o1)c1ccc2c(c1)OCO2', 'Calpain-2 catalytic subunit (Sus scrofa)', 'IC50', '15.2 µM (not active)'),
  ('COc1ccc(C2=NN(C(=O)c3ccc(Cl)c([N+](=O)[O-])c3)C(c3ccccc3)C2)cc1 (stereo not given)', 'Calpain-2 catalytic subunit (Sus scrofa)', 'IC50', '3.26 µM (not active)');

In: Can you look up IC50 on Calpain-2 catalytic subunit (Sus scrofa) for `O=C(O)c1ccc(NC2=C(Cl)C(=O)c3ccccc3C2=O)cc1` ?
Out: 10.8 µM (not active)

* * *

Measurement record for Cytochrome P450 1A2 (Homo sapiens, UniProt P05177); quantity recorded: AC50.

Record excerpt, results attached:
INSERT INTO measurements (smilesrepresentation, systemname, measured) VALUES
  ('CCOC(=O)CSc1nnc(Cc2ccccc2)n1-c1cccc(Cl)c1', 'Cytochrome P450 1A2 (Homo sapiens, UniProt P05177)', '25.1 µM (inconclusive)'),
  ('CCc1ccc(OCC(=O)NC(=S)Nc2ccc(C)cc2C)c(Br)c1', 'Cytochrome P450 1A2 (Homo sapiens, UniProt P05177)', '4.47 µM (inconclusive)'),
  ('CCCCNC(=O)C(=O)c1ccccc1NC(C)=O', 'Cytochrome P450 1A2 (Homo sapiens, UniProt P05177)', '39.8 µM (inconclusive)'),
  ('CCN(CC)CCOCCOC(=O)C1(c2ccccc2)CCCC1', 'Cytochrome P450 1A2 (Homo sapiens, UniProt P05177)', '20 µM (inconclusive)'),
  ('Cc1nc(-n2nc3c(c2O)CCCC3)[nH]c(=O)c1Cc1ccccc1', 'Cytochrome P450 1A2 (Homo sapiens, UniProt P05177)', '14.1 µM (inconclusive)');

Now for a further compound.
In: What AC50 value was documented for this compound, `CN1CCN(c2ncnc3ccc(-c4cccc(NS(C)(=O)=O)c4)cc23)CC1` ?
Out: 25.1 µM (inconclusive)

* * *

// values below are reported EC50
# Test system: Streptococcus
# testProtocol: Group A Streptococcus viability loss, dose response, counter-screen for streptokinase expression inhibitor project, luminescence, BacTiterGlo (AID 1915);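 further: potency for reduction of bacterial viability or growth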
# Type: functional, organism-based
Activity calls are given as the source filed them.

Record excerpt, results attached:
INSERT INTO measurements (compound, reportedmetric, measured) VALUES
  ('Cc1cccc2sc(NNC(=O)c3cc(=O)c4ccccc4o3)nc12', 'EC50', '7.43 µM (active)'),
  ('CCc1cccc2c(C(=O)COC(=O)c3ccc([N+](=O)[O-])s3)c[nH]c12', 'EC50', '1.03 µM (active)'),
  ('CC(C)(C)c1ccc(C(=O)Nc2nnc(C3=COCCO3)o2)cc1', 'EC50', '9.1 µM (active)'),
  ('O=[N+]([O-])c1ccc(O)c(Nc2ncnc3ccc(Br)cc23)c1', 'EC50', '46.2 µM (active)');

Now for a further compound.
In: Can you look up EC50 on Streptococcus for Cc1ccc(N2C(=O)C3CC(c4ccccc4)=C4C5C=CC(C6C(=O)N(c7ccc(C)cc7)C(=O)C56)C4C3C2=O)cc1 (stereo not given) ?
Out: 30.9 µM (active)

* * *

# systemName: Insulin-degrading enzyme (Homo sapiens)
# Sequence (P14735 whole entry): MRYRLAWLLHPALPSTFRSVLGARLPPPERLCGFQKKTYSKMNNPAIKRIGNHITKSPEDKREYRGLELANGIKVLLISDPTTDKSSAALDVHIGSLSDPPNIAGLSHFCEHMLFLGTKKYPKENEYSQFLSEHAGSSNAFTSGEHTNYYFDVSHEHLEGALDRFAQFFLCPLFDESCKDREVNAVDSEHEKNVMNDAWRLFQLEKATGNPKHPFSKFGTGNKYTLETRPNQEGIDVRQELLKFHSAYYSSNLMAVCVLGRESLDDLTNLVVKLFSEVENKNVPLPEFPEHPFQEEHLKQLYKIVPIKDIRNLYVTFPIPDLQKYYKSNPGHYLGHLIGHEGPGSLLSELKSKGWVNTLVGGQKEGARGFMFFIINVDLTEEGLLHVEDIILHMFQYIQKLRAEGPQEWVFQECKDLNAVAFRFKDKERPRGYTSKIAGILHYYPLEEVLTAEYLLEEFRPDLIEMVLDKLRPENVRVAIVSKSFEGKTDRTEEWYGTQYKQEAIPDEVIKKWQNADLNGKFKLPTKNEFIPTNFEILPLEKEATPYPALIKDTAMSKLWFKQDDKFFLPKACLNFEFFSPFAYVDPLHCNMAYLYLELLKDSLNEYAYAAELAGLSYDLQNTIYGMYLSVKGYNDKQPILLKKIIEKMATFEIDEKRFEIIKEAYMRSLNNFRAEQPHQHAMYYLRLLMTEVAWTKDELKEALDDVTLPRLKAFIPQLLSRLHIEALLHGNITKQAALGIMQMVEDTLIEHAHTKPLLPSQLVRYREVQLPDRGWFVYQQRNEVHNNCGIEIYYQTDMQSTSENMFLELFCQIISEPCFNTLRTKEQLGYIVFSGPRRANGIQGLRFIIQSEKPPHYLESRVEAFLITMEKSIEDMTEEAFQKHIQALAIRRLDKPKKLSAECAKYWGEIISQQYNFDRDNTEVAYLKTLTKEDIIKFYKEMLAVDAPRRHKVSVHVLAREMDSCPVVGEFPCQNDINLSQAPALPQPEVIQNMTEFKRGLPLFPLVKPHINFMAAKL
# testProtocol: Dose Response: Fluorescence polarization-based cell-based high throughput dose response assay for inhibitors of insulin-degrading enzyme (IDE). [Related pubchem assays: 434962 (Primary screen (IDE inhibitors in singlicate)), 449730 (Counterscreen (Cytotoxicity in triplicate)), 435028 (Confirmation (IDE inhibitors in triplicate)), 434984 (Summary …
# Type: functional
Active and inactive are the calls of the source.
// values below are reported IC50

Record excerpt, results attached:
INSERT INTO measurements (compound, systemname, reportedmetric, measured) VALUES
  ('Cc1ccc(-c2cc(C(=O)Nc3ccc(S(=O)(=O)Nc4ncccn4)cc3)[nH]n2)c(O)c1C', 'Insulin-degrading enzyme (Homo sapiens)', 'IC50', '17.7 µM (not active)'),
  ('O=C1Nc2ccccc2/C1=C/c1c[nH]c(-c2ccccc2)n1', 'Insulin-degrading enzyme (Homo sapiens)', 'IC50', '> 55.9 µM (not active)'),
  ('CCCn1c(Nc2nc3ccccc3n2C)nc2ccccc21', 'Insulin-degrading enzyme (Homo sapiens)', 'IC50', '> 55.9 µM (not active)'),
  ('CCOC(=O)C1C(=O)NC(SCC(N)=O)=C(C#N)C1c1ccccc1OCC (stereo unspecified)', 'Insulin-degrading enzyme (Homo sapiens)', 'IC50', '> 6.21 µM (active)'),
  ('CN(C)c1ccc(/C=C2\SC(=O)N(CCc3nnc(N)s3)C2=O)cc1', 'Insulin-degrading enzyme (Homo sapiens)', 'IC50', '> 55.9 µM (not active)');

Now for a further compound.
In: What IC50 value was documented for this compound, COc1ccc(C2CC(c3cccs3)=NN2c2ccc(C=O)cc2)cc1 (stereo unspecified) ?
Out: > 55.9 µM (not active)

* * *

# systemName: Cyclin-dependent kinase 8 (Homo sapiens)
# Sequence (P49336 whole entry): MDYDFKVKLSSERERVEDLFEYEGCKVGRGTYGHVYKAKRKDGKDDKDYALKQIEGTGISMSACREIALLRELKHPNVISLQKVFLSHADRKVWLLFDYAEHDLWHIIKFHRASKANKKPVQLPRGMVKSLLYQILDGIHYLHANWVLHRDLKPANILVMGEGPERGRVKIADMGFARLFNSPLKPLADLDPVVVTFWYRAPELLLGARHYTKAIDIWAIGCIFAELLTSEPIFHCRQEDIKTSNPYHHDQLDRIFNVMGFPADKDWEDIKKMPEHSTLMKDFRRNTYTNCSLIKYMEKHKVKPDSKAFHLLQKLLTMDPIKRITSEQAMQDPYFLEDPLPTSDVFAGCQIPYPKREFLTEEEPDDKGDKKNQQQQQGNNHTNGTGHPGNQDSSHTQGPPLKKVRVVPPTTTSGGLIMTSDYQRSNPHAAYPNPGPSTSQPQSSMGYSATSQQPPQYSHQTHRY
# testProtocol: Navigating the Kinome. Panel member name: CDK8
# Assay type: functional
The source made the active and inactive calls.
Mark one answer only. Choices: active, inactive

In: GET /call?item= `Nc1cc2c(Oc3ccc(Cl)cc3)cncc2s1` returns the recorded outcome of this test.
Out: active

In: GET /call?item= `COc1cc2c(cc1F)C(c1ccccc1Cl)=Nc1c(n[nH]c1C)N2` returns the recorded outcome of this test.
Out: inactive

In: GET /call?item= `Cc1nn(C)c2sc3c(=O)[nH]cnc3c12` returns the recorded outcome of this test.
Out: active

In: GET /call?item= `Cc1ccc2nccc(NC(=O)Nc3cccc(C(F)(F)F)n3)c2c1` returns the recorded outcome of this test.
Out: active

* * *

# systemName: Estrogen receptor beta (Homo sapiens, UniProt Q92731);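 further: recombinant ER-beta bound to coactivator SRC1 peptide in presence of estradiol agonist; inhibitors block coactivator peptide binding and lower the FRET signal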
# Sequence (Q92731 whole entry): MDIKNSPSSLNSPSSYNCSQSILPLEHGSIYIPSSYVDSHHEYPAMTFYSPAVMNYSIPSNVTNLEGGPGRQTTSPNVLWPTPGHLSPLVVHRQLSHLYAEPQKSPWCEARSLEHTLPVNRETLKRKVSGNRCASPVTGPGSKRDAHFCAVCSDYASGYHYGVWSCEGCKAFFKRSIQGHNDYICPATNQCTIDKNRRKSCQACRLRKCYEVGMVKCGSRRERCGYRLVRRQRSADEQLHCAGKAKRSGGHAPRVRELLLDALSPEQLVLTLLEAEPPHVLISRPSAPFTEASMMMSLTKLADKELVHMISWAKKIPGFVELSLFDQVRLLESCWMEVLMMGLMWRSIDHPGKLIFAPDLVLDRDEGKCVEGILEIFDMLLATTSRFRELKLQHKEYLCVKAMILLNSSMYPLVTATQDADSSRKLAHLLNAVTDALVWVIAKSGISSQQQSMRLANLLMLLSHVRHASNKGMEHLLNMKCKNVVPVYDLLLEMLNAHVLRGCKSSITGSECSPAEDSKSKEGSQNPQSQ
The source made the active and inactive calls.
// values below are reported IC50

INSERT INTO assay_data (compound, systemname, measured) VALUES
  ('O=C(Cn1nnc(-c2ccc3c(c2)OCO3)n1)NCc1ccco1', 'Estrogen receptor beta (Homo sapiens, UniProt Q92731)', '19.6 µM (active)');

In: What IC50 value was documented for this compound, `Oc1ccc(/C=N/c2ccc(N3CCOCC3)cc2)c(O)c1` ?
Out: 14.4 µM (active)

In: What IC50 value was documented for this compound, COc1cc(C2C(C#N)=C(N)Oc3cc(C)oc(=O)c32)cc2c1OCO2 (stereo unspecified) ?
Out: 13.6 µM (active)

* * *

# systemName: Heat shock factor protein 1 (Mus musculus, UniProt P38532)
# Sequence (P38532 whole entry): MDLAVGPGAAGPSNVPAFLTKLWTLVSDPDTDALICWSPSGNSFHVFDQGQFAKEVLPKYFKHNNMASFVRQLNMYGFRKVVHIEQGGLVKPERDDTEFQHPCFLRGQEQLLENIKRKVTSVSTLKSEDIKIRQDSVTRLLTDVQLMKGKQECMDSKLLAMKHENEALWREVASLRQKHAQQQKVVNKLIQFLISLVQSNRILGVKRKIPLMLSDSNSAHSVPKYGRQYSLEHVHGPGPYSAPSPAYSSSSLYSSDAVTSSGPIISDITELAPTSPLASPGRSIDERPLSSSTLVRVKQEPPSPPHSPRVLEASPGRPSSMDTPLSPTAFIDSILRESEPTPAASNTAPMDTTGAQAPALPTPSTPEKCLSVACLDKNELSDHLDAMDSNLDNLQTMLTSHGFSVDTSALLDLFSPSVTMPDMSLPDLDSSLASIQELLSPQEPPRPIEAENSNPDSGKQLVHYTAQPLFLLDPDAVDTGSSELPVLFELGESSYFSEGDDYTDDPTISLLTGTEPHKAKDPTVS
# testProtocol: HSF1 potentiators in luciferase reporter cells, confirmation, cell-based, NIH3T3, luminescence, dose retest (AID 435004);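 further: stress induced by proteasome inhibitor MG132 added 30 min after compound; luciferase reporter driven by HSF1 response element in NIH3T3 cells; actives raise luminescence as potentiators of the MG132 stress response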
# Format: functional
Active and inactive are the calls of the source.
Mark one answer only. Choices: active, inactive

These recorded examples may help you get a feel for the data.
INSERT INTO results (molecule, systemname, category) VALUES
  ('Cc1ccccc1CSc1nsc(N)n1', 'Heat shock factor protein 1 (Mus musculus, UniProt P38532)', 'inactive'),
  ('CCO/C(O)=C1\C(C)=Nc2ncnn2C1c1ccc2c(c1)OCO2 (stereo not given)', 'Heat shock factor protein 1 (Mus musculus, UniProt P38532)', 'inactive');

In: GET /call?item= `CCN(CC)CCn1c2ccccc2c2nc3ccc([N+](=O)[O-])cc3cc21` returns the recorded outcome of this test.
Out: active

In: GET /call?item= `CCOC(=O)CC(=O)CSCC(=O)Nc1ccc(C)cc1` returns the recorded outcome of this test.
Out: inactive

In: GET /call?item= `CN(CC(=O)Nc1ccccc1Cl)CC(=O)Nc1c(F)cccc1F` returns the recorded outcome of this test.
Out: inactive
